The values you see were collected from patent US9765069B2.

Each entry below carries its reported pIC50.
target: E. Coli RNAP (Escherichia coli, UniProt P0A8T7+P0A8V2); experiment: In vitro activity against E. Coli RNAP
Sequence (P0A8V2 whole entry): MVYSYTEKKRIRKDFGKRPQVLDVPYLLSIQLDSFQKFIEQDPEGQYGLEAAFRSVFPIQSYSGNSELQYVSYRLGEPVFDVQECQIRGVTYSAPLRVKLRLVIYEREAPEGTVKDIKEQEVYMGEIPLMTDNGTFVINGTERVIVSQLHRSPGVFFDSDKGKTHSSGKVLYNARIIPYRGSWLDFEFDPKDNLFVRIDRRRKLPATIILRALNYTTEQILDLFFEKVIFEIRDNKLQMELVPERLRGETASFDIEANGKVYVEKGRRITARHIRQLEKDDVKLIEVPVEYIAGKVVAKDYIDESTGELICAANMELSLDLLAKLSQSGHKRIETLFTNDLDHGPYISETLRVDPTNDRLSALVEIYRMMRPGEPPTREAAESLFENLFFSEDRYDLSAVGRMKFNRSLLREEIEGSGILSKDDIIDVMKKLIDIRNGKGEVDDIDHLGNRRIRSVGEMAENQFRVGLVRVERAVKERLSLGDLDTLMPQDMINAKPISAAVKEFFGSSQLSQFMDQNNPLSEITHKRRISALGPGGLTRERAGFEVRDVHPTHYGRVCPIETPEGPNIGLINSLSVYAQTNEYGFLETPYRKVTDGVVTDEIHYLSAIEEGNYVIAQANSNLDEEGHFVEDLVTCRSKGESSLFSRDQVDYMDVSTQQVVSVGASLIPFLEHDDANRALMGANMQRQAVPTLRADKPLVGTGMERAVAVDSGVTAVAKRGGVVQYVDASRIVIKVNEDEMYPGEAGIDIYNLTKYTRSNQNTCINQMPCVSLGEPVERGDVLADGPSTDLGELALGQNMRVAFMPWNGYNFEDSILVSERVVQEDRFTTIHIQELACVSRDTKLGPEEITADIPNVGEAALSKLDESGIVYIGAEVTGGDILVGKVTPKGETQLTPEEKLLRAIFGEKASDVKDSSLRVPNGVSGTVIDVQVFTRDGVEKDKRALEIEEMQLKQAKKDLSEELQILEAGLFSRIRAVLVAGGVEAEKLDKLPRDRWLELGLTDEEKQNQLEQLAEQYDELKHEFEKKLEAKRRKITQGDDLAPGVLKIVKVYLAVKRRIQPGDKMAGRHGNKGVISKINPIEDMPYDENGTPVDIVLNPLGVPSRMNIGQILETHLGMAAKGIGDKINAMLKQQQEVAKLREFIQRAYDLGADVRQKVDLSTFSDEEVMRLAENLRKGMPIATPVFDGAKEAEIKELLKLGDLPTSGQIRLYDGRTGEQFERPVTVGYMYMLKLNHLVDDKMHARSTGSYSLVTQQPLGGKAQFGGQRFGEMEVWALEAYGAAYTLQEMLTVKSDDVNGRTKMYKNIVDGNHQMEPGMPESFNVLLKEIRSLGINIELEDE
Sequence (P0A8T7 whole entry): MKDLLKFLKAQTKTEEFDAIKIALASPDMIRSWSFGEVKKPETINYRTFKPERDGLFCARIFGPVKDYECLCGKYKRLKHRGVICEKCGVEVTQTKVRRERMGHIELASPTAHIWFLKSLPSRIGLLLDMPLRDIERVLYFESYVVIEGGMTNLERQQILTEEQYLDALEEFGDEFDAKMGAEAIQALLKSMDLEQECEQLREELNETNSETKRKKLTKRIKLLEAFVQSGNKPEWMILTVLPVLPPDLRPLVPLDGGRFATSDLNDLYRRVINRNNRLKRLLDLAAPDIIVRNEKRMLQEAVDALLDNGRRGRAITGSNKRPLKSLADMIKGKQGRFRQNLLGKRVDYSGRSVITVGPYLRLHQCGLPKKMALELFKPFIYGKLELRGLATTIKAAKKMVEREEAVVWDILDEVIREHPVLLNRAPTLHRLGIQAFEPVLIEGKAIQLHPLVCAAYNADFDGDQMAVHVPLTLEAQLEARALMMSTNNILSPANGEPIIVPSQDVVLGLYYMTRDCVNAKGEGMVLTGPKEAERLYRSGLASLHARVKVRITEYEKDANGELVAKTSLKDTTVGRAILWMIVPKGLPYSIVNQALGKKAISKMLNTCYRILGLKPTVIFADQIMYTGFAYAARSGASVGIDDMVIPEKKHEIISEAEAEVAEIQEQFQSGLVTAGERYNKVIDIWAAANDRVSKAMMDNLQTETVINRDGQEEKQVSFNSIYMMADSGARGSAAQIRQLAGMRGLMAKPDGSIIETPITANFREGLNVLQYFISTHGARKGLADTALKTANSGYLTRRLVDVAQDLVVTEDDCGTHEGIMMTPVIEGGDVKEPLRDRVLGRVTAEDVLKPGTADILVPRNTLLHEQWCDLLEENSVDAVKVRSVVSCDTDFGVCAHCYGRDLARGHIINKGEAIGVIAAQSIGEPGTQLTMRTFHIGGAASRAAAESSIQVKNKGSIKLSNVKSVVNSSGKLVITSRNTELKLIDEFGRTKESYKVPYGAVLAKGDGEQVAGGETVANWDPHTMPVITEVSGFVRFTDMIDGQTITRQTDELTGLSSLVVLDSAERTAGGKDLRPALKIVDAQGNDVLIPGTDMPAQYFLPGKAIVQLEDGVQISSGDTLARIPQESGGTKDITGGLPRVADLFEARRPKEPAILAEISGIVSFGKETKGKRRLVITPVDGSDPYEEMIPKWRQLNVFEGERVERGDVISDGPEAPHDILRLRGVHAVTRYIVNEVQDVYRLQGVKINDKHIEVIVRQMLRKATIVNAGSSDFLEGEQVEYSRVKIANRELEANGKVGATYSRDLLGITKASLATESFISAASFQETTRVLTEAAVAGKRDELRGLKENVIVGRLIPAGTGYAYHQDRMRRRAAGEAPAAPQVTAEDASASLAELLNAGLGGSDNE
Sequence (P0A7Z4 whole entry partner): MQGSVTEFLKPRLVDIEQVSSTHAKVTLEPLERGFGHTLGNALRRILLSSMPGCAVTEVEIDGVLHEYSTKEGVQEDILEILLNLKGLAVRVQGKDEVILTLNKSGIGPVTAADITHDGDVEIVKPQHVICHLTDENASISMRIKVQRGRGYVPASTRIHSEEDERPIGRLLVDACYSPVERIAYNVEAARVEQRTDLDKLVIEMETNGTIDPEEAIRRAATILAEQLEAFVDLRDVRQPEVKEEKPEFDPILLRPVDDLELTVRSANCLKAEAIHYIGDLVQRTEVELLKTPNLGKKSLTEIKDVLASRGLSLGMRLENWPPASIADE
Sequence (P0A800 whole entry partner): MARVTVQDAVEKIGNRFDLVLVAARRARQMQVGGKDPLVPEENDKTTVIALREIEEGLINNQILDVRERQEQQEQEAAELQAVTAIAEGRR
pIC50: −log10 of the molar value.
observation type: pIC50

>>> obs_value("CSCCC1C(=O)C(=C(O)CC23CC4CC(CC(C4)C2)C3)C(=O)N1C(=O)C1CCCCC1 (stereo not drawn) [31f]")
4.40
>>> obs_value("CCCC(=O)N1CC(=O)C(=C(O)CC23CC4CC(C)(CC(C)(C4)C2)C3)C1=O [27k]")
5.17
>>> obs_value("CNC(=O)[C@@H](C)[C@H]1C(=O)/C(=C(O)/C=C/C(C)=C/[C@@H](C)[C@H]2O[C@@]3(C)O[C@H](C=C[C@@]34CO4)[C@@H]2C)C(=O)N1[C@@H]1CC[C@H](O)[C@H](C)O1 [streptolydigin, reference compound]")
4.42
>>> obs_value("CCCCCCCC(O)=C1C(=O)C(CCSC)N(C(=O)CC(C)CC(C)(C)C)C1=O (stereo not drawn) [24j]")
4.72
>>> obs_value("CCCCCCCCCCCC(O)=C1C(=O)C(CCSC)N(C(C)=O)C1=O (stereo not drawn) [24b]")
4.60
>>> obs_value("CCCCCCC/C=C/C(=O)N1C(=O)/C(=C(\\O)C[C@@H]2OC(C)(C)OC2=O)C(=O)C1CC(C)C (stereo partly drawn) [30c]")
4.07
>>> obs_value("CCCCCC(O)=C1C(=O)C(CCSC)N(C(=O)CC(C)CC(C)(C)C)C1=O (stereo not drawn) [24i]")
4.48
>>> obs_value("CCCCCCC(=O)N1CC(=O)C(=C(O)CCCOc2ccc(Cl)cc2C)C1=O [28h]")
4.48
>>> obs_value("CSCCC1C(=O)/C(=C(/O)CCCOc2ccc(Cl)cc2C)C(=O)N1C(=O)CC(C)CC(C)(C)C (stereo not drawn) [31j]")
4.04
>>> obs_value("CCCCCCC(=O)N1CC(=O)C(=C(O)CC23CC4CC(CC(C4)C2)C3)C1=O [27i]")
5.51
>>> obs_value("CSCCC1C(=O)C(=C(O)CC23CC4CC(C)(CC(C)(C4)C2)C3)C(=O)N1C(C)=O (stereo not drawn) [31e]")
4.96
>>> obs_value("CCCCCCCCCCCC(O)=C1C(=O)CCN(C(=O)c2ccccc2)C1=O [25b]")
4.07
